TARGET OR SYSTEM: T1, recombinant cynomolgus Ang2-FLD (cynomolgus)
T1 construct: domain: FLD; also called cyno Ang2-FLD
PROTOCOL TEXT: SPR (Biacore T100), binder on CM5 chip, Ang2-FLD as analyte
Procedure: In brief, VHH and benchmark compounds are immobilized on a CM5 chip via amine coupling. […] Ang2-FLD species are allowed to associate for 2 min and to dissociate for 20 min at a flow rate of 45 μL/min. […] Association/dissociation data are evaluated by fitting a 1:1 interaction model (Langmuir binding). The affinity constant KD is calculated from resulting association and dissociation rate constants kₐ and kd and are depicted in Table 8.
MEASURED PROPERTY: pKd
Numbers only, as −log10 of the molar value.

Use the examples below as a reference point.
BINDER	pKd
VHH 7G08 (VHH, also called 007G08; not shown: C-terminal c-myc tag and His6 tag) VHH: EVQLVESGGGLVQPGGSLRLSCAASGFALDYYAIGWFRQVPGKEREGVSCISSSDGITYYVDSVKGRFTISRDNAKNTVYLQMNSLKPEDTAVYYCATDSGGYIDYDCMGLGYDYWGQGTQVTVSS	10.14
VHH 28D10 (VHH, also called 028D10; not shown: C-terminal c-myc tag and His6 tag) VHH: EVQLVESGGGLVQAGGSLRLSCAASGFTLDDYAIGWFRQAPGKEREGVSCIRDSDGSTYYADSVKGRFTISSDNDKNTVYLQMNSLKPEDTAVYYCAAVPAGRLRFGEQWYPLYEYDAWGQGTQVTVSS	8.85
VHH 13A02 (VHH, also called 013A02; not shown: C-terminal c-myc tag and His6 tag) VHH: EVQLVESGGGLVQAGGSLRLSCAASGGTFSSYSMGWFRQAPGKEREFIAAINWNGDSTYYEDSVKGRFTVSRDNAKNTVYLQMNSLKPEDTAVYYCAATGWGRAYEQAYEYDVWGQGTQVTVSS	8.06

# context switch: different binder, same pKd
Per the record, VHH 1D01 (VHH, also called 001D01; not shown: C-terminal c-myc tag and His6 tag) VHH: EVQLVESGGGLVQAGGSLRLSCAASGFTFDDYALGWFRQAAGKEREGVSCIRCSDGSTYYADSVKGRFTISSDNAKNTVYLQMNSLKPEDTAVYYCAASIVPRSKLEPYEYDAWGQGTQVTVSS has pKd of 8.85
